target_or_test_system: UniProt:Q9H3N8
property_measured: pKi
Scale note: pKi = -log10(concentration in M).

Completed entries (count: 5):
molecule	recorded_result
Cn1ncc2c1CCCc1c-2nc(N)nc1N1CC[C@@H](N)C1	6.37
Nc1nc2c(c(N3CC4CCCNC4C3)n1)CCCc1sccc1-2 (stereo not shown)	8.22
Nc1nc2c(c(N3CC4CCCNC4C3)n1)CCCc1occc1-2 (stereo not shown)	7.92
CN[C@@H]1CCN(c2nc(N)nc3c2CCCc2sccc2-3)C1	8.06
Nc1nc2c(c(N3C[C@H]4CCCN[C@H]4C3)n1)CCCc1sccc1-2	8.74

Form entry - test system: UniProt:Q9H3N8; read-out: pKi; molecule: Nc1nc2c(c(N3CC4CCCNC4C3)n1)CCCc1ccoc1-2 (stereo not shown) 6.78

# value lookup — system UniProt:Q9H3N8, readout pKi, item CN1CCN(c2nc(N)nc3c2CCc2sccc2-3)CC1 7.10

====

target_or_test_system: histamine H4 receptor (Homo sapiens, UniProt Q9H3N8)
Construct: expressed in transfected cells
Sequence (Q9H3N8 whole entry, species assumed): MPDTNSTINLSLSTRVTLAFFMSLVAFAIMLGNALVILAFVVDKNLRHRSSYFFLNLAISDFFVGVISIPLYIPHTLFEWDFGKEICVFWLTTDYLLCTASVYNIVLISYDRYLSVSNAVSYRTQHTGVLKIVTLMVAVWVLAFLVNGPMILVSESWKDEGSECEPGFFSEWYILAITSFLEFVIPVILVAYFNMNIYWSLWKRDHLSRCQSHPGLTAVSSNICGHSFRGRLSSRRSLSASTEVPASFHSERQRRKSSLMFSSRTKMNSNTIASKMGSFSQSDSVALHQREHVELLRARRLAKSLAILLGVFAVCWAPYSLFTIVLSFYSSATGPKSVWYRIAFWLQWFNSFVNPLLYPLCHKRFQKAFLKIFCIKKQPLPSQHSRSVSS
experiment_summary: In vitro histamine H4 potency in FLIPR (Ca2+ flux, Fluo-4, HEK-293 cells coexpressing Gαqi5)
Format: cell-based
settings: Kb values for antagonists and inverse agonists, EC50 values for partial agonists
The entries below are paired with their reported Potency.
Numeric only. Scale: nM

Check out these entries, answers already filled in.
compound	target_or_test_system	recorded_result
Cc1cc2c(o1)CCCc1c-2nc(N)nc1N1CC2CCCNC2C1 (stereo not drawn) [Example 5]	histamine H4 receptor (Homo sapiens, UniProt Q9H3N8)	34
Nc1nc2c(c(N3CC4CCCNC4C3)n1)CCCc1sc(Br)cc1-2 (stereo not drawn) [Example 12]	histamine H4 receptor (Homo sapiens, UniProt Q9H3N8)	35
Nc1nc2c(c(N3CC[C@@H](N)C3)n1)CCCc1sccc1-2 [Example 2]	histamine H4 receptor (Homo sapiens, UniProt Q9H3N8)	6.6
CN1CCN(c2nc(N)nc3c2CCCc2c-3cnn2C)CC1 [Example 8]	histamine H4 receptor (Homo sapiens, UniProt Q9H3N8)	107
Nc1nc2c(c(N3CC4CCCNC4C3)n1)CCCc1sc(-c3ccccc3)cc1-2 (stereo not drawn) [Example 13]	histamine H4 receptor (Homo sapiens, UniProt Q9H3N8)	700

Which Potency value belongs to Nc1nc2c(c(N3CC4CCCNC4C3)n1)CCCc1ccoc1-2 (stereo not drawn) [Example 7] ? 20

Which Potency is reported for this compound? CC(C)(C)n1ncc2c1CCCc1c-2nc(N)nc1N1CC2CCCNC2C1 (stereo not drawn) [Example 10] 187

Need Potency, item CN[C@@H]1CCN(c2nc(N)nc3c2CCCc2sccc2-3)C1 [Example 3] 3.7

Which Potency value is on record for Nc1nc2c(c(N3C[C@H]4CCCN[C@H]4C3)n1)CCCc1sccc1-2 [Example 18] ? 6

For the compound shown here, Nc1nc2c(c(N3CC[C@@H](N)C3)n1)CCCc1cccnc1-2 [Example 15] , give the reported Potency. 35

====

target_or_test_system: histamine H4 receptor (Homo sapiens, UniProt Q9H3N8)
Construct: expressed in transfected cells
experiment_summary: In vitro histamine H4 potency in FLIPR (Ca2+ flux, Fluo-4, HEK-293 cells coexpressing Gαqi5)
Format: cell-based
settings: Kb values for antagonists and inverse agonists, EC50 values for partial agonists
Description: There are many methods available to show the effectiveness of compounds as histamine H4 receptor ligands. Histamine H4 receptors from mammalian species have been cloned. […] In the case of partial agonist or agonist ligands, addition of compound to the cells leads to the increase in intracellular Ca^+2 which is detected by FLIPR (Fluorescence Imaging Plate Reader; Molecular Devices, Sunnyvale, Calif.) technology. […]
Decide using Potency: a value greater than or equal to 100 nM is met, a smaller one is not met.

compound	answer_label
Cc1cc2c(o1)CCCc1c-2nc(N)nc1N1CC[C@@H](N)C1	met

Reported Potency reaches at least 100 nM for CN1CCN(c2nc(N)nc3c2CCCc2cccnc2-3)CC1 ? not met

For this compound, is measured Potency 100 nM or higher? Cn1ncc2c1CCCc1c-2nc(N)nc1N1CC[C@@H](N)C1 met

Given the entry CN[C@@H]1CCN(c2nc(N)nc3c2CCCc2c-3cnn2-c2ccccc2)C1 , answer whether its Potency meets or surpasses 100 nM. not met

Can Nc1nc2c(c(N3CC4CCCNC4C3)n1)CCCc1sccc1-2 (centres unmarked) be said to have Potency at or above 100 nM? not met

Could you tell me if the measured Potency of Cc1noc2c1-c1nc(N)nc(N3CC[C@@H](N)C3)c1CCC2 reaches 100 nM or more? met

Item Cc1noc2c1-c1nc(N)nc(N3CCN(C)CC3)c1CCC2 with Potency of 100 nM or above? met

API: above_or_equal(metric=Potency, cutoff=100 nM) for item Nc1nc2c(c(N3CC4CCCNC4C3)n1)CCCc1occc1-2 (centres unmarked) not met

These data points were gathered from patent US8546410B2.
